Molecular target: T1, CaBdf1 BD1 (GST-tagged, wild-type) (Candida albicans (strain SC5314 / ATCC …, UniProt Q5A4W8))
T1 chain: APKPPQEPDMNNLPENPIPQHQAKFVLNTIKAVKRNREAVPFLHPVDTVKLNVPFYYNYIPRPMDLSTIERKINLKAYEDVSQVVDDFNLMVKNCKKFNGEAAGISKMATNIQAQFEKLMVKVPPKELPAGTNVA
Experiment: histone peptide array (Active Motif MODified), 1 uM GST-tagged bromodomain, anti-GST detection, normalized mean intensity
Ends that are not written are not given here.
Lab note: anything with binding score at or over 0.02 counts as True; the rest go in False.

Would you please look over these solved cases?
RKSAPATGGVKKPHRYRPG (not fully specified; histone peptide post-translational modifications (acetyl, methyl, phospho, citrulline) listed in columns 4-7 and embedded in the sequence text; N-terminus free or acetylated in column 8)
False
PRKQLATKAARK(Me3)SAPATGG [H3 16-35]
False

Task item: State whether the measured binding score reaches 0.02, counting equality as reaching it, for ARTKQTARKSTGGKAPRKQ (A Rme2s T Kme3 Q T A R Kme3 S T G G K A P R K Q)
Reply: False

Task item: Moving on to the next binder: ARTKQTARKSTGGKAPRKQ (A R T K Q T A R Kme3 pS T G G K A P R K Q)
Reply: False
